- TARGET_OR_TEST_SYSTEM: HCV NS3 protease domain (Hepatitis C virus genotype 1b, UniProt Q9WMX2)
- Construct: The first 181 amino acids of NS3 (residues 1027-1207 of the viral polyprotein); hexa-histidine (C); made in house; host or cells: E. coli BL21/DE3 pLysS
- Sequence (Q9WMX2 1027-1207, other chains not shown): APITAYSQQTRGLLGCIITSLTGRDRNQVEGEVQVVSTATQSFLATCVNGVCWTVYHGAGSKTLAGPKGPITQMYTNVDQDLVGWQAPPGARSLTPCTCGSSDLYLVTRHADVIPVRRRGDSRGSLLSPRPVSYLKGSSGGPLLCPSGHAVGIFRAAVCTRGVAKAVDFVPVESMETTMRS
- PROTOCOL_SUMMARY: biochemical
- CONDITION_LABEL: Enzyme Assay 1 (HCV NS3 Protease Domain Peptide Cleavage Assay) activity, apparent Ki class
Listed compounds paired with reported Ki

Worked examples, 5 compounds total:
COMPOUND	Ki
CCC[C@H](NC(=O)[C@@H]1C[C@]2(CC(c3cccc(Cl)c3)=NO2)CN1C(=O)[C@@H](NC(=O)CC1CCCCC1)C(C)(C)C)C(=O)C(=O)Nc1ccc(C)c(C#N)c1	> 500 nM
CCC[C@H](NC(=O)[C@@H]1C[C@]2(CC(c3cccc(Cl)c3)=NO2)CN1C(=O)[C@@H](NC(=O)CC1CCCCC1)C(C)(C)C)C(=O)C(=O)NC1(C(=O)OC)CC1	> 500 nM
CCC[C@H](NC(=O)[C@@H]1C[C@]2(CC(c3cccc(Cl)c3)=NO2)CN1C(=O)[C@@H](NC(C)=O)C(C)(C)C)C(=O)C(=O)NC1CC1	100 to 500 nM
CCC[C@H](NC(=O)[C@@H]1C[C@]2(CC(CC)=NO2)CN1C(=O)[C@@H](NC(=O)OCc1ccccc1)C(C)(C)C)C(=O)C(=O)NC1CC1	> 500 nM
CCC[C@H](NC(=O)[C@@H]1C[C@]2(CC(c3cccc(Cl)c3)=NO2)CN1C(=O)c1cc2cc(OC)c(OC)cc2[nH]1)C(=O)C(=O)NC1CC1	> 500 nM

(Q) Fill blank: measured Ki of the compound CCC[C@H](NC(=O)[C@@H]1C[C@]2(CC(c3cc(Cl)c(OC)cc3OC)=NO2)CN1C(=O)[C@@H](NC(=O)CC1CCCCC1)C(C)(C)C)C(=O)C(=O)NC1CC1 is ____.
(A) 100 to 500 nM

(Q) Now give it for CCC[C@H](NC(=O)[C@@H]1C[C@]2(CC(c3cc(Cl)cc(OC)c3OC)=NO2)CN1C(=O)[C@@H](NC(=O)CC1CCCCC1)C(C)(C)C)C(=O)C(=O)NC1CC1 too.
(A) 100 to 500 nM

----------
pKi: recorded values
- TARGET_OR_TEST_SYSTEM: HCV NS3 protease domain (Hepatitis C virus genotype 1b, UniProt Q9WMX2)
- Construct: The first 181 amino acids of NS3 (residues 1027-1207 of the viral polyprotein); hexa-histidine (C); made in house; host or cells: E. coli BL21/DE3 pLysS
- PROTOCOL_SUMMARY: biochemical
- CONDITION_LABEL: Enzyme Assay 1 (HCV NS3 Protease Domain Peptide Cleavage Assay) activity, apparent Ki class
pKi: −log10 of the molar value.

SMILES_REPRESENTATION	pKi
CCC[C@H](NC(=O)[C@@H]1C[C@]2(CC(c3cccc(Cl)c3)=NO2)CN1C(=O)[C@@H](NC(=O)Cc1cc2c(cc1Cl)OCO2)C(C)(C)C)C(=O)C(=O)NC1CC1	6.30 to 7.00
CCC[C@H](NC(=O)[C@@H]1C[C@]2(CC(c3cccc(Cl)c3)=NO2)CN1C(=O)[C@H](Cc1ccc(OC)cc1)NC(=O)CC1CCCCC1)C(=O)C(=O)NC1CC1	< 6.30
CCC[C@H](NC(=O)[C@@H]1C[C@]2(CC(c3cccc(Cl)c3)=NO2)CN1C(=O)[C@H](Cc1ccsc1)NC(=O)CC1CCCCC1)C(=O)C(=O)NC1CC1	< 6.30
CCC[C@H](NC(=O)[C@@H]1C[C@@]2(CC(c3ccccc3)=NO2)CN1C(=O)c1ccc[nH]1)C(=O)C(=O)NC1CC1	< 6.30
C=CCOC(=O)N[C@H](C(=O)N1C[C@@]2(CC(c3ccccc3)=NO2)C[C@H]1C(=O)N[C@@H](CCC)C(=O)C(=O)NC1CC1)C(C)(C)C	6.30 to 7.00

Please turn your attention to the following entry.
(Q) Any idea what pKi came out for CCC[C@H](NC(=O)[C@@H]1C[C@]2(CC(c3cccnc3)=NO2)CN1C(=O)[C@@H](NC(=O)CC1CCCCC1)C(C)(C)C)C(=O)C(=O)NC1CC1 on HCV NS3 protease domain (Hepatitis C virus genotype 1b, UniProt Q9WMX2)?
(A) < 6.30
